From: patent US20260116991A1

measuredOn: T1, monkey GPC3-His protein (monkey)
T1 construct: Bought recombinant protein; also called monkey GPC3 protein
testProtocol: ELISA, monkey GPC3-His coated;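 also: Plate-coated antigen at 1 µg/mL, antibody binding 2 h at 37 °C, detected with HRP-labeled secondary antibody and TMB, absorbance at 450 nm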
Kindly state OD450 at 0.001 nM for each of the entries shown.
Give bare numbers, in OD450.

binder	valueType	valueMeasured
F3.81.19 (antibody, human IgG1, kappa, V domains shown, Human-murine chimeric antibody) VH: QVQLQQSGAELVRPGASVKLSCKASGYTFTDYEMHWVKQTPVHGLEWIGTIDPETGNTAYNQKFKGKATLTADKSSSTAYMELRSLTSEDSAVYYCTRPYSLTYWGQGTLVTVSA VL: DVLLTQTPLSLPVSLGDQASISCRSSQSFVHSNGDTYLQWYLQKPGQSPKLLIYKVSNRFSGVPDRFSGSGSGTDFTLKISRVEAEDLGVYYCFQGSHVPYTFGSGTKLEIKR	OD450 at 0.001 nM	0.06
F1.57.21 (antibody, human IgG1, kappa, V domains shown, Human-murine chimeric antibody) VH: QVQLQQSGAELARPGASVKLSCKASGYTFTSYGISWVKQITGQGLEWIGEIYPRSESTYYNEKFKGKATLTADKSSSTAYMELRSLTSEDSAVYFCARDYGNIYSFAYWGQGTLVTVSA VL: DIQMTQSPASLSASVGETVTITCRTSENIYSYLAWYQQKQGKSPQLLVYNAKTLAEGVPSRFSGSGSGTQFSLKINSLQPEDFGSYYCQHHYGTPLTFGAGTKLELKR	OD450 at 0.001 nM	0.06

Shift focus to the following entry.
Exercise: Which value of OD450 at 0.001 nM has been reported for F1.41.17 (antibody, human IgG1, kappa, V domains shown, Human-murine chimeric antibody) VH: EVQLVESGGDSVKPGGSLKLSCAASGFTFSSYGMSWVRQTPDKRLEWVATINSGGSYTYYQDSVKGRFTISRDNAKNTLYLQMSSLKSEDTAIYYCVRHHYGSSYDYFDYWGQGTTLTVSS VL: DIVMTQAAPSVPVMPGESVSISCRSSKSLLHSNGNTHLYWFLQRPGQSPQLLIYRMSNLASGVPDRFSGSGSGTAFTLRISRVEAEDVGVYYCMQHLEYPLTFGAGTKLELKR in the records?
Key: 0.06
